All values here come from patent US10556907B2.

# System Tested: human S1PR5 receptor (Homo sapiens)
# Construct: host or cells: CHO-K1
# Experimental Details: Method 1: intracellular Ca2+ release (FLIPR, Calcium 5) in recombinant CHO-K1 cells
# Type: cell-based
# Test Parameters: (1): determined with method 1; read-out: S1P5 EC50 range (bound printed instead of class symbol)
pEC50: −log10 of the molar value.
Recorded Endpoint: pEC50

For CC(CC(=O)O)CN1Cc2cnc(-c3ccc(OCc4ccc(Cl)cc4)cc3)nc2CC12CCC2 (stereo not shown) the compound record lists pEC50 as < 6.00

###

# System Tested: human EDG8 (S1PR5) receptor (Homo sapiens)
# Sequence (Q9H228 whole entry): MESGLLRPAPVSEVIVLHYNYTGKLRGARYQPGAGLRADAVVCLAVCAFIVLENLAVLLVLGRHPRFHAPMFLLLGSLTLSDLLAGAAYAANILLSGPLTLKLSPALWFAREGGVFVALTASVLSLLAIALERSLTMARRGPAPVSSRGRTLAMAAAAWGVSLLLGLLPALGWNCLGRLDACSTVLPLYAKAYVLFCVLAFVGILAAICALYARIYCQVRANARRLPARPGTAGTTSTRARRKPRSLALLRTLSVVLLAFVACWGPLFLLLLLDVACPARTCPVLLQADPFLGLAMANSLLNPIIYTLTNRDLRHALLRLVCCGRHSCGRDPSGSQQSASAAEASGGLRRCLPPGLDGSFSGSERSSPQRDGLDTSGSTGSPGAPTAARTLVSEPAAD
# Experimental Details: Method 2: Aequorin assay, cell clone CHO-A21-EDG8 #12
# Test Parameters: agonist potency, determined with method 2 (symbols E-G); read-out: S1P5 EC50 range
# Description: Agonistic activity was measured using two different methods, described below. Genetically Engineered Cells […] 18 hours prior to the test, vials of frozen cells are quickly thawed in a 37° C. water bath, cells are recovered by centrifugation and resuspended in assay buffer (DMEM/HAM's F12 with HEPES, without phenol red+0.1% fatty acid-free BSA). […] Cells are then placed in the luminescence reader (Hamamatsu Functional Drug Screening System 6000, FDSS6000). […]
pEC50: −log10 of the molar value.
Could you please report measured pEC50 for the items listed next?

For O=C(O)CCN1CCc2nc(-c3ccc(OCc4ccccc4)cc3C(F)(F)F)ccc2C1 the compound record lists pEC50 as 5.00 to 6.00

For CC(CN1Cc2ccc(-c3ccc(OCc4ccccc4)cc3)nc2C1)C(=O)O (stereo not shown) the compound record lists pEC50 as 5.00 to 6.00

For O=C(O)CCN1CCc2cc(-c3ccc(OCc4ccccc4)cc3)nnc2C1 the compound record lists pEC50 as 5.00 to 6.00

For O=C(O)CCN1CCc2nc(-c3ccc(OCc4ccccc4)cc3)ccc2C1 the compound record lists pEC50 as 6.00 to 7.00

###

# System Tested: human S1PR5 receptor (Homo sapiens, UniProt Q9H228)
# Construct: host or cells: CHO-K1
# Sequence (Q9H228 whole entry): as above
# Experimental Details: Method 1: intracellular Ca2+ release (FLIPR, Calcium 5) in recombinant CHO-K1 cells
# Type: cell-based
# Test Parameters: agonist potency, determined with method 1 (symbols A-D); read-out: S1P5 EC50 range
pEC50: −log10 of the molar value.
Could you please report measured pEC50 for the items listed next?

For Cc1cc(OC(F)(F)F)ccc1COc1ccc(-c2ncc3c(n2)CCN(CCC(=O)O)C3)cc1 [Compound 93] the compound record lists pEC50 as > 8.00

For CCOc1ccc(C#Cc2ccc3c(n2)CCN(C2CC(C(=O)O)C2)C3)cc1 (centres unmarked) [Compound 122] the compound record lists pEC50 as 5.00 to 6.00

For Cc1cccc(COc2ccc(-c3ncc4c(n3)CCN(CC(C)CC(=O)O)C4)c(F)c2)c1C (centres unmarked) [Compound 231] the compound record lists pEC50 as > 8.00

For CC(CC(=O)O)CN1CCc2nc(-c3ccc(C4CC4c4cccc(Cl)c4)cc3)ncc2C1 (centres unmarked) [Compound 293] the compound record lists pEC50 as 6.00 to 7.00

For O=C(O)CCCN1CCc2nc(C#Cc3cc(F)ccc3F)ncc2C1 [Compound 49] the compound record lists pEC50 as 5.00 to 6.00

For O=C(O)CCN1CCc2ncc(-c3ccc(OCc4cccc(Cl)c4)cc3)nc2C1 [Compound 222] the compound record lists pEC50 as 5.00 to 6.00

For CC(CCN1CCc2nc(-c3ccc(OCc4ccccc4)cc3)c(F)cc2C1)C(=O)O (centres unmarked) [Compound 180] the compound record lists pEC50 as > 8.00

For O=C(O)CCN1CCc2nc(-c3ccc(OCc4ccc5c(c4)CCC5)cc3)ccc2C1 [Compound 162] the compound record lists pEC50 as > 8.00

For Cc1ccc(COc2ccc(-c3ncc4c(n3)CCN(CCC(=O)O)C4)cc2)cc1C(F)(F)F [Compound 89] the compound record lists pEC50 as > 8.00

For Cc1ccc(COc2ccc(-c3ncc4c(n3)CCN(CC(C)CC(=O)O)C4)c(F)c2)cc1 (centres unmarked) [Compound 307] the compound record lists pEC50 as 6.00 to 7.00

For CC(CC(=O)O)N1CCc2nc(-c3ccc(OCc4cccc(F)c4)cc3)ncc2C1 (centres unmarked) [Compound 41] the compound record lists pEC50 as > 8.00

For CC(CC(=O)O)CN1CCc2nc(-c3ccc(C4CC4c4ccc(Cl)cc4)cc3)ncc2C1 (centres unmarked) [Compound 323] the compound record lists pEC50 as 5.00 to 6.00

For Cc1c(COc2ccc(-c3ncc4c(n3)CCN(CC(C)CC(=O)O)C4)c(F)c2)cccc1C(F)(F)F (centres unmarked) [Compound 241] the compound record lists pEC50 as > 8.00

For CC(CC(=O)O)N1CCc2nc(-c3ccc(OCc4ccc(Cl)cc4)cc3)ncc2C1 (centres unmarked) [Compound 44] the compound record lists pEC50 as 7.00 to 8.00

For CCc1ccccc1COc1ccc(-c2ncc3c(n2)CCN(CC(C)CC(=O)O)C3)cc1C (centres unmarked) [Compound 308] the compound record lists pEC50 as 6.00 to 7.00

For Cc1cc(-c2ncc3c(n2)CCN(CC(C)CC(=O)O)C3)ccc1OCc1c(F)cccc1F (centres unmarked) [Compound 316] the compound record lists pEC50 as 6.00 to 7.00

For Cc1c(COc2ccc(-c3ncc4c(n3)CCN(CCC(=O)O)C4)cc2)cccc1C(F)(F)F [Compound 94] the compound record lists pEC50 as > 8.00

###

# System Tested: human S1PR4 receptor (Homo sapiens, UniProt O95977)
# Sequence (O95977 whole entry): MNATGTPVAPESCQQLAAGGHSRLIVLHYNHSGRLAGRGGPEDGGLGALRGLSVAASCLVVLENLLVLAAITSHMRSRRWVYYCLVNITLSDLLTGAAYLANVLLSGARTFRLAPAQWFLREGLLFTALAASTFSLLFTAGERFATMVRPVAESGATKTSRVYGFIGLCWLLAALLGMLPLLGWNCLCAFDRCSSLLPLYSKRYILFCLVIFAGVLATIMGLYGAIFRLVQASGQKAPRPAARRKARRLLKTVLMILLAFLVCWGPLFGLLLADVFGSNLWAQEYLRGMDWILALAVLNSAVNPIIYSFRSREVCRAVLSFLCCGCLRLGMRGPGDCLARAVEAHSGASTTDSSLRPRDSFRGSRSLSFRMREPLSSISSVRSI
# Experimental Details: Method 1: intracellular Ca2+ release (FLIPR, Calcium 5) in recombinant CHO-K1 cells
# Test Parameters: (1): determined with method 1; read-out: S1P4 EC50
Recorded Endpoint: EC50

Record for Cc1cc(-c2ncc3c(n2)CCN(CC(C)CC(=O)O)C3)ccc1CCc1cccc(Cl)c1 (stereo not shown) under target or system human S1PR4 receptor (Homo sapiens, UniProt O95977): EC50 reported as < 1 µM

Record for CC(CC(=O)O)CN1CCc2nc(-c3ccc(OCc4ccc(C(C)(C)C)cc4)cc3F)ncc2C1 (stereo not shown) under target or system human S1PR4 receptor (Homo sapiens, UniProt O95977): EC50 reported as > 1 µM

Record for Cc1ccc(COc2ccc(-c3ncc4c(n3)CCN(CC(C)CC(=O)O)C4)cc2C)cc1 (stereo not shown) under target or system human S1PR4 receptor (Homo sapiens, UniProt O95977): EC50 reported as > 1 µM

Record for Cc1ccccc1COc1ccc(-c2ncc3c(n2)CCN(C[C@H](C)CC(=O)O)C3)cc1C under target or system human S1PR4 receptor (Homo sapiens, UniProt O95977): EC50 reported as < 1 µM

###

# System Tested: human S1PR1 receptor (Homo sapiens, UniProt P21453)
# Sequence (P21453 whole entry): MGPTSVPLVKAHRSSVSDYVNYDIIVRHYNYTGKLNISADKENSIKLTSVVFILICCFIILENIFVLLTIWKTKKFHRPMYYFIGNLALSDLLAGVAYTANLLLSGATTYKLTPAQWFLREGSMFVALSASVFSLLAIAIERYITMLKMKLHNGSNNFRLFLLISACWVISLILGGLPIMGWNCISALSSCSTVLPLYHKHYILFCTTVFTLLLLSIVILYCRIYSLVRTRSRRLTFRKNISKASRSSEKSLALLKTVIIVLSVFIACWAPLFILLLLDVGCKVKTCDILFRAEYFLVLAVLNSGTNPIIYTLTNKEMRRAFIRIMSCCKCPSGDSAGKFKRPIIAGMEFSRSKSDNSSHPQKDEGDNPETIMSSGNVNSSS
# Experimental Details: Method 1: intracellular Ca2+ release (FLIPR, Calcium 5) in recombinant CHO-K1 cells
# Test Parameters: (1): determined with method 1; read-out: S1P1 EC50
pEC50: −log10 of the molar value.
Recorded Endpoint: pEC50

For CC(CC(=O)O)CN1CCc2nc(-c3ccc(OCc4c(Cl)cccc4Cl)cc3)ncc2C1 (centres unmarked) the molecule record lists pEC50 as < 6.00

For O=C(O)CC1(CN2CCc3nc(-c4ccc(OCc5cccc(Cl)c5)cc4)ncc3C2)CC1 the molecule record lists pEC50 as < 6.00

For CC(CC(=O)O)CN1CCc2nc(-c3ccc(OCc4ccc(C(F)(F)F)cc4)cc3)ncc2C1 (centres unmarked) the molecule record lists pEC50 as > 6.00

For C[C@H](CC(=O)O)C(=O)N1CCc2nc(-c3ccc(OCc4ccc(Cl)cc4)cc3)ncc2C1 the molecule record lists pEC50 as < 6.00

For C[C@H](CC(=O)O)CN1CCc2nc(-c3ccc(CCc4ccc(Cl)cc4)cc3)ncc2C1 the molecule record lists pEC50 as < 6.00

For O=C(O)C1CC(N2CCc3nc(C#Cc4ccc(Cl)cc4)ncc3C2)C1 (centres unmarked) the molecule record lists pEC50 as < 6.00

For CC(CN1CCc2nc(-c3ccc(OCc4cccc(F)c4)cc3)ccc2C1)C(=O)O (centres unmarked) the molecule record lists pEC50 as > 6.00

For CC(CC(=O)O)CN1CCc2nc(-c3ccc(OCc4cccc(Cl)c4)cc3F)ncc2C1 (centres unmarked) the molecule record lists pEC50 as < 6.00

###

# System Tested: human S1PR1 receptor (Homo sapiens, UniProt P21453)
# Experimental Details: Method 1: intracellular Ca2+ release (FLIPR, Calcium 5) in recombinant CHO-K1 cells
# Test Parameters: (1): determined with method 1; read-out: S1P1 EC50
pEC50: −log10 of the molar value.
Could you please report measured pEC50 for the items listed next?

For CC(CC(=O)O)CN1CCc2nc(-c3ccc(OCc4cccc(Cl)c4)cc3)cnc2C1 (centres unmarked) [Compound 209] the compound record lists pEC50 as < 6.00

For CC(CC(=O)O)CN1CCc2nc(-c3ccc(C(F)(F)Cc4cccc(Cl)c4)cc3)ncc2C1 (centres unmarked) [Compound 328] the compound record lists pEC50 as < 6.00

For CC(CC(=O)O)CN1CCc2nc(-c3ccc(OCc4ccc(C(C)(C)C)cc4)cc3F)ncc2C1 (centres unmarked) [Compound 283] the compound record lists pEC50 as < 6.00

For Cc1cc(-c2ncc3c(n2)CCN(C[C@@H](C)CC(=O)O)C3)ccc1OCc1ccc(Cl)cc1 [Compound 270] the compound record lists pEC50 as < 6.00

For O=C(O)C1CC(N2CCc3nc(C#Cc4cc(F)cc(F)c4)ccc3C2)C1 (centres unmarked) [Compound 127] the compound record lists pEC50 as < 6.00

For CCc1cccc(Cl)c1COc1ccc(-c2ncc3c(n2)CCN(CC(=O)O)C3)cc1 [Compound 35] the compound record lists pEC50 as > 6.00

For O=C(O)CCCN1CCc2nc(Cc3ccccc3)ncc2C1 [Compound 50] the compound record lists pEC50 as < 6.00

For O=C(O)C1CC(N2CCc3nc(-c4cccc(OCc5ccccc5)c4)cnc3C2)C1 (centres unmarked) [Compound 208] the compound record lists pEC50 as < 6.00

For Cc1cc(-c2ccc3c(n2)CCN(CC(=O)O)C3)ccc1OCc1ccc(C(F)(F)F)cc1 [Compound 112] the compound record lists pEC50 as < 6.00

For Cc1cc(COc2ccc(-c3ncc4c(n3)CCN(CCC(=O)O)C4)cc2)cc(OC(F)(F)F)c1 [Compound 95] the compound record lists pEC50 as > 6.00

For CC(CC(=O)O)CN1CCc2nc(-c3ccc(OCc4cccc(C(F)(F)F)c4)cc3)ncc2C1 (centres unmarked) [Compound 238] the compound record lists pEC50 as > 6.00

For CC(CC(=O)O)CN1CCc2nc(-c3ccc(OCC4CCCCC4)cc3)ncc2C1 (centres unmarked) [Compound 336] the compound record lists pEC50 as < 6.00

For CC(CC(=O)O)N1CCc2nc(-c3ccc(OCc4ccc(Cl)c(Cl)c4)cc3)ncc2C1 (centres unmarked) [Compound 45] the compound record lists pEC50 as < 6.00

For CC(CC(=O)O)N1CCc2nc(-c3ccc(OCc4cccc(F)c4)cc3)ncc2C1 (centres unmarked) [Compound 41] the compound record lists pEC50 as < 6.00

For CC(CC(=O)O)CN1CCc2nc(-c3ccc(OCc4ccc(F)cc4)cc3F)ncc2C1 (centres unmarked) [Compound 298] the compound record lists pEC50 as < 6.00

For Cc1cc(-c2ccc3c(n2)CCN(CCC(=O)O)C3)ccc1OCc1ccc(Cl)cc1 [Compound 169] the compound record lists pEC50 as < 6.00

For O=C(O)C1(CCN2CCc3nc(-c4ccc(OCc5ccc(Cl)cc5)cc4)ncc3C2)CC1 [Compound 335] the compound record lists pEC50 as < 6.00
